Data credit: patent US9518018B2

# Tested on: ECHCG: barnyardgrass (Echinochloa crus-galli)
# PROTOCOL_DETAILS: Post-Emergent Test I herbicidal activity
# Assay type: in vivo
# MEASUREMENT_CONTEXT: post-emergence, 336 h, Table 3, 140 g ai/ha, read-out: Visual Growth Reduction (%)-14 Days after Application ECHCG
PARAMETER: pest or weed control at 140 g/ha (%)
Could you give me the number in %? Just the number is fine.

Use the examples below as a reference point.
COC(=O)c1nc(C(F)F)cc(N)c1OC [Compound 92] ... 0
COC(=O)c1nc(-c2ccc3c(c2)OCO3)c(F)c(N)c1OC [Compound 37] ... 100
COc1c(C(=O)O)nc(-c2ccc(C(F)(F)F)c(F)c2F)c(F)c1N [Compound 56] ... 100

ECHCG: barnyardgrass (Echinochloa crus-galli) / pest or weed control at 140 g/ha / CSc1c(C(=O)O)nc(-c2ccc(Cl)c(F)c2)c(F)c1N [Compound 72] : value?
0

Item COC(=O)c1nc(-c2ccc(Cl)c(C(C)F)c2F)c(F)c(N)c1OC (stereo not shown) [Compound 33] with ECHCG: barnyardgrass (Echinochloa crus-galli) - pest or weed control at 140 g/ha?
80

====

# System: ZEAMX: corn (Zea mays)
# PROTOCOL_DETAILS: Post-Emergent Test I herbicidal activity
# Format: in vivo
# MEASUREMENT_CONTEXT: Zea mays, post-emergence, 336 h, Table 3, 70 g ai/ha, read-out: Visual Growth Reduction (%)-14 Days after Application ZEAMX
PARAMETER: pest or weed control at 70 g/ha (%)
Form entry: value (%) — number only.

# annotated cases, reported pest or weed control at 70 g/ha shown
COC(=O)c1nc(-c2ccc(Br)c(F)c2)c(F)c(N)c1OC ... 50
COc1c(C(=O)O)nc(-c2ccc(Cl)cc2F)c(F)c1N ... 70
COC(=O)c1nc(-c2ccc(Cl)c(OC)c2F)cc(N)c1OC ... 60
COC(=O)c1nc(-c2cc(F)c(Br)cc2F)c(F)c(N)c1OC ... 80
COc1c(C(=O)O)nc(-c2ccc(Br)c(F)c2F)c(F)c1N ... 85

Now let's try a different one.
# get_value(readout='pest or weed control at 70 g/ha', item= COC(=O)c1nc(-c2ccc(Cl)cc2F)c(F)c(N)c1OC )
10

====

# Tested on: ZEAMX: corn (Zea mays)
# PROTOCOL_DETAILS: Post-Emergent Test I herbicidal activity
# Assay type: in vivo
# MEASUREMENT_CONTEXT: Table 4, growth reduction of 80% of plant growth, 14 days after application, probit analysis
# Description: Seeds or nutlets of the desired test plant species were planted in Sun Gro Metro-Mix® 360 planting mixture, which typically has a pH of 6.0 to 6.8 and an organic matter content of about 30 percent, in plastic pots with a surface area of 64 square centimeters. […] A weighed amount, determined by the highest rate to be tested, of each test compound was placed in a 25 mL glass vial and was dissolved in 4 mL of a 97:3 v/v mixture of acetone and DMSO to obtain concentrated stock solutions. […]
GR80 ZEAMX values for the compounds below.

COC(=O)c1nc(-c2ccc(Cl)cc2F)cc(N)c1OC ... >140 g ai/ha
COc1c(C(=O)O)nc(-c2ccc(Cl)cc2)c(F)c1N ... 74.1 g ai/ha
COc1c(N)cc(-c2ccc(Cl)cc2)nc1C(=O)O ... >280 g ai/ha

Could you tell me which GR80 ZEAMX is on file for COc1c(C(=O)O)nc(-c2ccc(Cl)c(OC)c2F)c(F)c1N ?
>140 g ai/ha

Please give the measured GR80 ZEAMX for this compound: COC(=O)c1nc(Cl)cc(N)c1OC
>280 g ai/ha
